study_target: Transient receptor potential cation channel subfamily V member 6 (Homo sapiens, UniProt Q9H1D0)
Sequence (Q9H1D0 whole entry): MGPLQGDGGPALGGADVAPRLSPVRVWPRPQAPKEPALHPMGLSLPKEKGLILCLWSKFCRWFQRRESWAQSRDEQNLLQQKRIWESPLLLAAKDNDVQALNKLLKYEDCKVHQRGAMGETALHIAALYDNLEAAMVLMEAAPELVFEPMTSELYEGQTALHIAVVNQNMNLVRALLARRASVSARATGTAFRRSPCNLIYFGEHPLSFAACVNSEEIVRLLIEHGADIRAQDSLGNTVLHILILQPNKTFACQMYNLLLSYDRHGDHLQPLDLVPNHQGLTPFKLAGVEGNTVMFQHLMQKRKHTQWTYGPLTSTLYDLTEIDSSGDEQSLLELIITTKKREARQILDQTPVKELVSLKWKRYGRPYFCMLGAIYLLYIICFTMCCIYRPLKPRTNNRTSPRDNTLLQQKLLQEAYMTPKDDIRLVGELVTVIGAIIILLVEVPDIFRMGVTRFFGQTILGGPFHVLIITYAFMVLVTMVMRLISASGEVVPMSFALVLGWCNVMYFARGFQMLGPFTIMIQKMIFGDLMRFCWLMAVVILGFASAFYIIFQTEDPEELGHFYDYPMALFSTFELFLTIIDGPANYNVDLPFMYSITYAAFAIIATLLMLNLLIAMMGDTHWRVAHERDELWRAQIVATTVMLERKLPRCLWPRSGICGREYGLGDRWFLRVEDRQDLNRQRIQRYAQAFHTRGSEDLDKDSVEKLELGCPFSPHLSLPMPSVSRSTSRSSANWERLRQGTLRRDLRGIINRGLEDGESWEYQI
experimental_protocol: Inhibition of human TRPV6 expressed in HEK293 cells assessed as reduction in Cd2+ influx preincubated for 5 mins followed by CdCl2 addition using 365 nm UV-light irradiated compound by calcium-5 fluorescence dye-based FLIPR assay
Type: cell-based
pIC50: −log10 of the molar value.
endpoint_label: pIC50

1 = c1ccc(/N=N\c2ccc(CN3CCN([C@H]4CC[C@@H](c5ccccc5)CC4)CC3)cn2)cc1
2 = c1ccc(/N=N\c2ccc(CN3CCN([C@H]4CC[C@@H](c5ccccc5)CC4)CC3)cc2)cc1
Task item: Of 1 and 2 , which one carries the higher reported pIC50? Your answer should be the label of the entry you select.
Reply: 1
